Target: Ubiquitin-activating enzyme e1, putative (Leishmania donovani (strain BPK282A1))
Test: Leishmania donovani Ubiquitin Activating Enzyme (LdE1)
Assay type: functional
Parameters: scale not given: direction of the effect not stated beside the values
Conditions: 30 µM
Measured potencies and affinities stand elsewhere.
Give measured Percent Effect for each item. Keep answers brief.

For orientation, consider the following solved cases.
> print(dat)
                                   molecule                               system.name  result
1  Cc1nn(C)c(Cl)c1C1CCCN1C(=O)c1nccnc1N (stereo unspecified)  Ubiquitin-activating enzyme e1, putative (Leishmania donovani (strain BPK282A1))   16.2%
2  CS(=O)(=O)N1CCCC12CCCN(S(=O)(=O)c1cc(F)cc(F)c1)C2 (stereo unspecified)  Ubiquitin-activating enzyme e1, putative (Leishmania donovani (strain BPK282A1))  -8.11%
3     Cc1noc(CN(Cc2ccc3c(c2)OCO3)C2CCCC2)n1  Ubiquitin-activating enzyme e1, putative (Leishmania donovani (strain BPK282A1))   10.8%

Dear reader, for each entry below, please note its Percent Effect.
1. CS(=O)(=O)Cc1cccc(C(=O)NCC2Cc3ccccc3O2)c1 (stereo unspecified)
2. CN(C)C(=O)c1cnc2n1CCN(Cc1ccccc1)C2
3. Cc1ccc(N2CCCc3sc(C(=O)NCc4cccnc4)nc32)nn1

["5.48%", "13.3%", "-8.22%"]
